study-target: PARP-1 (Homo sapiens)
Construct: made in house
Sequence (P09874 whole entry): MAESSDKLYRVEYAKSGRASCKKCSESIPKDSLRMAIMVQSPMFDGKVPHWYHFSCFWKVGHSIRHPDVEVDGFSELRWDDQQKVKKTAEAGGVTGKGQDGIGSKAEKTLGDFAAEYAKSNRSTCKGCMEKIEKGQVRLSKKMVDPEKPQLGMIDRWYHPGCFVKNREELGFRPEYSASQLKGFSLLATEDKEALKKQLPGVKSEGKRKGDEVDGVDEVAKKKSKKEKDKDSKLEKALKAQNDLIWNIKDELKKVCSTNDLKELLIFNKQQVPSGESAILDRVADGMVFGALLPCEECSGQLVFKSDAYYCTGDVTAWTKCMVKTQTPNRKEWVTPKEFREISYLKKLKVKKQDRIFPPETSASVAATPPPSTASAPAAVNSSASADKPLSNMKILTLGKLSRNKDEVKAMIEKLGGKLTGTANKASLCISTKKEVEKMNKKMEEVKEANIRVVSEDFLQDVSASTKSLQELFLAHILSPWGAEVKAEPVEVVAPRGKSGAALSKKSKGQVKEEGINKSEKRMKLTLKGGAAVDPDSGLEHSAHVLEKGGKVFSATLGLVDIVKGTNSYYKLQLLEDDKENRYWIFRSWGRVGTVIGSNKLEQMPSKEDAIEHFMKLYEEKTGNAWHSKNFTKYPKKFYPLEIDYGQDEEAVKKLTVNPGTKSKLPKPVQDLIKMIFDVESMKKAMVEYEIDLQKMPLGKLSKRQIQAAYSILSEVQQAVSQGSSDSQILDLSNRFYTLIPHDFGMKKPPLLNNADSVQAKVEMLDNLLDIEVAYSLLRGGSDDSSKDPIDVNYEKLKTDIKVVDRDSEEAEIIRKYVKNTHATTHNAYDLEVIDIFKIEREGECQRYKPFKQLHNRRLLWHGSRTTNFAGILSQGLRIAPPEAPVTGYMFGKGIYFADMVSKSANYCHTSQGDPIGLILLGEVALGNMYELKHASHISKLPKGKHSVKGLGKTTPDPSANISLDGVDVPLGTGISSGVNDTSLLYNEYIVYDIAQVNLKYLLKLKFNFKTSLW
test: kinetics of PARP-1 inhibition (Km, Vmax, type of inhibition) by fluorescence anisotropy
Type: biochemical
cond: PARP-1 catalyzed reaction, versus NAD+
measurement-kind: type of inhibition

Prompt: Report type of inhibition, nothing else, for this molecule: Nc1ncnc2c1ncn2C1OC(COP(=O)(O)OP(=O)(O)NCC2CNCC(n3cc(I)c(=O)[nH]c3=O)O2)C(O)C1O (stereo not shown) [Compound 10IU]
Response: competitive inhibitors

Prompt: Dear colleague, please send me the reported type of inhibition for Nc1ncnc2c1ncn2C1OC(COP(=O)(O)OP(=O)(O)OCC2CNCC(n3cc(I)c(=O)[nH]c3=O)O2)C(O)C1O (stereo not shown) when you can.
Response: mixed inhibitor

Prompt: Item Nc1ncnc2c1ncn2C1CNCC(CNP(=O)(O)OP(=O)(O)OCC2OC(n3cnc4c(N)ncnc43)C(O)C2O)O1 (stereo not shown) [Compound 10A] : provide type of inhibition
Response: mixed inhibitor

Prompt: Tell us which type of inhibition value is on record for O=c1[nH]c(=O)n([C@H]2CNC[C@@H](CO)O2)cc1I [Compound 11IU]
Response: competitive inhibitors

* * *

study-target: Human recombinant poly(ADP-ribose)-polymerase 1 (Homo sapiens)
Sequence (P09874 whole entry): as above
test: autopoly(ADP-ribosyl)ation of PARP-1, [32P]NAD+ incorporation
cond: autopoly(ADP-ribosyl)ation, 0.3 mM NAD+
measurement-kind: pIC50
Answers are plain numbers, as −log10 of the molar value.

Some molecules with recorded pIC50:
Prompt: Supply pIC50 value. Item: O=c1[nH]c(=O)n([C@@H]2O[C@H](CO)[C@@H](O)[C@H]2O)cc1I [Compound 5-I-Urd, 5-I-uridine, reference compound]
Response: 4.31

Prompt: Return value of pIC50 for input O=c1[nH]c(=O)n([C@H]2CNC[C@@H](CO)O2)cc1Cl [Compound 11ClU] , no commentary.
Response: 3.63

Give pIC50 for each of the items listed below.
1. O=c1[nH]c(=O)n([C@H]2CNC[C@@H](CO)O2)cc1Br [Compound 11BrU]
2. Nc1ncnc2c1ncn2C1OC(COP(=O)(O)OP(=O)(O)NCC2CNCC(n3cc(I)c(=O)[nH]c3=O)O2)C(O)C1O (stereo not shown) [Compound 10IU]

Response:
[4.21, 3.90]
